List of PBM binding z-score values.
System: PPARg DBDmut:RXRa IVT, anti-PPARg (DBD mutation: PPARg1 K132A/R137A, NR concentration 270 nM, RXRa partner concentration 90 nM)
Assay Method Text: PBM binding z-score (relative to random genomic background probes); higher = stronger binding; sequences stand for … in GC…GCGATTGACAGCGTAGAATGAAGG

# example entries with known answers
[[record]]
residue_string = "TCGTATAGGTAAAAGGTGAAAGTCGGTGTGGTAA"
result = 0.0937

[[record]]
residue_string = "GCTGACGGGTCAAAGGTTATAGCATGAATAGAAT"
result = 0.893

[[record]]
residue_string = "TATACAGGGTCAAAGGCCAGAATACGAATGTCGA"
result = 2.92

[[record]]
residue_string = "TCTATCAGGCCAGAGGGTCACTCAAGAGGTACGG"
result = -0.288

[[record]]
residue_string = "CCGACTGGGCCAAAAAGGTCATTGATGCCGATAA"
result = -1.21


query: Would you mind telling me what PBM binding z-score value was observed for GGTAGCAGGCCATTTGGGTCACTCAATGACGGGC ?
result: -0.125

query: Would you mind telling me what PBM binding z-score value was observed for TCAATTAGTTGATTAGGGCAACCGAAACAGCGGA ?
result: 0.608

query: Would you mind telling me what PBM binding z-score value was observed for CCGAGTGGGGCAAAGGTTACCATACTCAGTACGA ?
result: 0.0641

query: Would you mind telling me what PBM binding z-score value was observed for TCTAGTAGTTGAAGGGCAACCGACGAGTCCGTTT ?
result: 0.13

query: Would you mind telling me what PBM binding z-score value was observed for CGAACGAGGGCATGAGTTGAGAGCAAATGCCGAT ?
result: -0.212

###

List of PBM binding z-score values.
Tested on: RARb homodimer (NR concentration 270 nM)
Assay Method Text: PBM binding z-score (relative to random genomic background probes); higher = stronger binding; sequences stand for … in GC…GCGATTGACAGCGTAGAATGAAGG

query: # query: PBM binding z-score | item CGTCCAAGGTCCAAGGTCAGTGAAGAGATGACGG | system: RARb homodimer (NR concentration 270 nM)
result: 3.34

query: # query: PBM binding z-score | item CAAACTAGGTCAGGGTCAAAGTCGGTTTGTGCCA | system: RARb homodimer (NR concentration 270 nM)
result: 4.45

query: # query: PBM binding z-score | item AGAACGAGGGCACGCTGATTTGATAGCAGAGTAG | system: RARb homodimer (NR concentration 270 nM)
result: 1.14

query: # query: PBM binding z-score | item ATCGAAATGTCGAAGGTGAGTATACCCACCCGAA | system: RARb homodimer (NR concentration 270 nM)
result: -0.167

query: # query: PBM binding z-score | item TCATATAGGTAGTACAGGTGAAAGTCGGCATCTA | system: RARb homodimer (NR concentration 270 nM)
result: 0.475

query: # query: PBM binding z-score | item CCAGACAGGTGAAAGGTAAATCAGTCTGGTACGC | system: RARb homodimer (NR concentration 270 nM)
result: 0.653

query: # query: PBM binding z-score | item CGAACTAGGTCAAGGACGGTGAATCTCCGCACGC | system: RARb homodimer (NR concentration 270 nM)
result: 2.96

query: # query: PBM binding z-score | item TCTTGTAGATCAGCAGGTTCAGAAAGCTGGCCAA | system: RARb homodimer (NR concentration 270 nM)
result: -0.402

query: # query: PBM binding z-score | item TCTCGGATGACACGAAGGTCAGAGCTTTCCAGAG | system: RARb homodimer (NR concentration 270 nM)
result: 3.15

query: # query: PBM binding z-score | item AATACAGGGTTACTAGGCCAGAGTAGGTACGAAT | system: RARb homodimer (NR concentration 270 nM)
result: 0.925

query: # query: PBM binding z-score | item CGAACGACGGCATGAGTTGATAGCAAATGCCGAT | system: RARb homodimer (NR concentration 270 nM)
result: -1.1

query: # query: PBM binding z-score | item TCAGCTAGGTCAACGATGGTCAGCTAATCTGCTA | system: RARb homodimer (NR concentration 270 nM)
result: 3.49

query: # query: PBM binding z-score | item CAAACTAGGTCACAGACGTCAAAGTCCGTGCGTA | system: RARb homodimer (NR concentration 270 nM)
result: 3.28

###

List of PBM binding z-score values.
Test system: PPARg DBDmut IVT, anti-PPARg (DBD mutation: PPARg1 K132A/R137A, NR concentration 270 nM)
Assay Method Text: PBM binding z-score (relative to random genomic background probes); higher = stronger binding; sequences stand for … in GC…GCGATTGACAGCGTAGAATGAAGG
Could you keep your reply to the number by itself?

# example entries with known answers
[[record]]
residue_string = "CGAACTAGGTCAGAACAGGAGAGTGAAGGATGAT"
recorded_number = 1.4

[[record]]
residue_string = "TCTTGTAGATCAACAGAGGTTAAGAAAGTGCGCT"
recorded_number = 0.408


query: Would you mind telling me what PBM binding z-score value was observed for CCTGCTAAGTCAATGGTCAGCTAAAGCAGCTCGC ?
result: -0.747

query: Would you mind telling me what PBM binding z-score value was observed for CGTCAAAGTTCAAAGTAACGTAACAGAAAGCAGC ?
result: 1.35

###

System: LXRb homodimer (NR concentration 270 nM)
Assay Method Text: PBM binding z-score (relative to random genomic background probes); higher = stronger binding; sequences stand for … in GC…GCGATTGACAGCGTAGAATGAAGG
List of PBM binding z-score values.

[[record]]
residue_string = "CTTAGCAGGCCAGGGTCACTCAAGCATTTCGCTT"
measured_on = "LXRb homodimer (NR concentration 270 nM)"
result = -0.331


query: Would you mind telling me what PBM binding z-score value was observed for CGAACAAGGTCAAGGACAGTGAATCTCCGCACGC ?
result: 0.377

query: Would you mind telling me what PBM binding z-score value was observed for CGAACTAGGGCATTGACAGGACAGTGAATAGTAA ?
result: -0.654

query: Would you mind telling me what PBM binding z-score value was observed for TGAATGAGATTATAAGATCAGGGAACGTTGCAAA ?
result: -0.369

query: Would you mind telling me what PBM binding z-score value was observed for TCTCGGAGGACACGAAAGGTCAGAGCGCGACATC ?
result: -0.239

query: Would you mind telling me what PBM binding z-score value was observed for CTACCAAGGTGAACAAGTTCGTTGATTACTATTC ?
result: -0.333

query: Would you mind telling me what PBM binding z-score value was observed for CCTAGTTGGTCAGGAGGGCACACACCGGATATGA ?
result: -0.0952

query: Would you mind telling me what PBM binding z-score value was observed for ACTATTAGGTGACTTAGGGCAACCGATACGACGC ?
result: 0.261

query: Would you mind telling me what PBM binding z-score value was observed for GCTATTAGTGGAAAGGGCAACCGAATGATTCTCG ?
result: -0.406

query: Would you mind telling me what PBM binding z-score value was observed for AGTCAAAGTTGACTAGGTAACGTAAGATTCAGCT ?
result: -0.608

###

Test system: PPARa:RXRa (NR concentration 270 nM, RXRa partner concentration 90 nM)
Assay Method Text: PBM binding z-score (relative to random genomic background probes); higher = stronger binding; sequences stand for … in GC…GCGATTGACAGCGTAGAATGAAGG
Measurement Type: PBM binding z-score
Could you keep your reply to the number by itself?

[[record]]
residue_string = "TAGCCTAGGTCATGGACCAGTATACCACGCGAAC"
recorded_number = 4.18

[[record]]
residue_string = "AGAACGAGGGCATGCTGAGTTGATAGCAGAGTAG"
recorded_number = 1.12

[[record]]
residue_string = "CGTCCAAGGTCAAGGTCAGTCAAAGAGACTCGAA"
recorded_number = 5.93

[[record]]
residue_string = "TCTCGGAGGACATGAAGGTCAGAGCTTTCCAGAG"
recorded_number = 1.77

[[record]]
residue_string = "CAGCCAAGGTCAGGGCCAGTATAGGAGGAACGTT"
recorded_number = 4.22


query: Would you mind telling me what PBM binding z-score value was observed for GCTTACGGGTCAAAGGTTAGAGCATGAATAGAAT ?
result: 6.73

query: Would you mind telling me what PBM binding z-score value was observed for TCTTGTAGATCAAAGGTTAAGATAGCCGAAGCCT ?
result: 4.83

###

Test system: FXR:RXRa (NR concentration 270 nM, RXRa partner concentration 90 nM)
Assay Method Text: PBM binding z-score (relative to random genomic background probes); higher = stronger binding; sequences stand for … in GC…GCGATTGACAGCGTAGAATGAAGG
Mark Not satisfied for PBM binding z-score values under 3, and Satisfied for everything at or above.

Here's what some known entries look like.
[[record]]
residue_string = "GCTTACGGGTCAAAGGTTGTAGCATGAATAGAAT"
category = "Satisfied"

[[record]]
residue_string = "TCTTGTCGATCAATAGAGGTTAAGAAAGTGCGCT"
category = "Not satisfied"

[[record]]
residue_string = "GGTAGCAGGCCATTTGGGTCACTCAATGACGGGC"
category = "Not satisfied"


query: Test whether the sequence CCTAGTCGGTCAAGGTCACACACGCTATAGGTAC records PBM binding z-score of 3 or higher.
result: Satisfied

query: Test whether the sequence ATCGAAAGGTCGAAGGTGTGTATACCCACCCGAA records PBM binding z-score of 3 or higher.
result: Satisfied

query: Test whether the sequence GCTTACGGGTCAAACGTTATAGCATGAATAGAAT records PBM binding z-score of 3 or higher.
result: Satisfied

query: Test whether the sequence CCGAGCAGGCCAATCTGGGTCACTCAAGGCTTGA records PBM binding z-score of 3 or higher.
result: Not satisfied

query: Test whether the sequence TCACACAGGTGAAGGTAACTCAGGTACGCAGTCG records PBM binding z-score of 3 or higher.
result: Not satisfied

query: Test whether the sequence ATCTCTTGGTAAAAGTTCAGTGAATCCCGAGGAT records PBM binding z-score of 3 or higher.
result: Not satisfied
